Source of measurements: PubChem BioAssay

experiment: basal S. cerevisiae growth modulation, no modifier, primary screen, OD600, strain BY4716, 24 h, basal condition (AID 1173); conditions: OD600, 24 h, higher = more signal, called active from +8 up or from −8 down
The following compounds are shown together with reported z-score values.
The answer should be a number; do not append a unit.

// worked examples, z-score included
// query z-score value for entry `COc1cc2c(cc1OC)CN(C(=O)[C@@H]1[C@H]3C(=O)O[C@H](c4ccccc4)[C@H](c4ccccc4)N3[C@H](c3ccccc3OCCO)[C@@]13C(=O)Nc1ccc(C#CC4(O)CCCCCC4)cc13)CC2`
0.882

// query z-score value for entry CC(C)(C)N1CC=CC23O[C@@H]4C=CCOC(=O)[C@@H]4[C@H]2C(=O)N(CCCO)[C@@H]3C1=O (some centres not stated)
0.114

// query z-score value for entry `COc1ccccc1CN1C(=O)c2ccccc2[C@@H](C(=O)NC(C)C)[C@@H]1c1ccc(CO)cc1`
-0.186

// query z-score value for entry CCN(CC)c1ccc(N2CC=CC34O[C@@H]5/C=C\CCC(C)OC(=O)C5[C@H]3C(=O)N(CCO)[C@@H]4C2=O)cc1 (some centres not stated)
-0.958

// query z-score value for entry O=C1OCC=C[C@H]2OC34C=CCN(Cn5nnc6ccccc65)C(=O)[C@H]3N(CCCCCCO)C(=O)[C@@H]4[C@@H]12 (some centres not stated)
-0.344

New cases:
// query z-score value for entry `C=C(CCCC)C(=O)CC[C@@H](OC(=O)c1cccnc1)c1ccccc1OCCO`
-3.02

// query z-score value for entry `C=CC[C@]12N=C(c3ccc(OCCCO)cc3)O[C@H]1c1ccccc1N(C)C2=O`
-1.62

====

test: CREB reporter modulators under forskolin, primary screen, cell-based, PC12, CRE-LacZ reporter, forskolin-stimulated (AID 1146); details: luminescence, 4.5 h, called active from +8 up or from −8 down;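 note: PC12 cells with 6xCRE LacZ reporter stimulated by forskolin 10 µM; beta-galactosidase reporter signal reflecting CREB driven transcription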
Activity calls are given as the source filed them.
Your response should consist of one outcome taken from yes (1) (active), no (0) (inactive)

Completed entries (count: 5):
What classification did O=C1NC(=O)C2C1C=CC(C(O)c1cc(C(F)(F)F)cc(C(F)(F)F)c1)N2Nc1ccc(Cl)cc1Cl (centres undefined) end up with in this test?
no (0)

What classification did `COc1cc2c(cc1OC)CN(C(=O)[C@H]1[C@@H]3C(=O)O[C@@H](c4ccccc4)[C@@H](c4ccccc4)N3[C@@H](c3ccc(OCCO)cc3)[C@]13C(=O)Nc1ccc(C#CCCO)cc13)CC2` end up with in this test?
no (0)

What classification did `CN(C)C(=O)[C@]1(CCC(=O)OC(C)(C)C)N=C(c2ccc(OCCCO)cc2)O[C@@H]1c1ccccc1` end up with in this test?
no (0)

What classification did `O=C(CS)NCCCCCCNC(=O)[C@H]1C[C@H]2C(=O)N[C@@H](Cc3ccccc3)C(=O)N2[C@H]1c1cccc(OCCO)c1` end up with in this test?
no (0)

What classification did `C=CC[C@@]1(C(=O)N2CCCCC2)N=C(c2ccc(OCCCO)cc2)O[C@@H]1c1ccccc1` end up with in this test?
no (0)

New cases:
What classification did `C=C(/C(=C/C[C@@H](OC(=O)c1ccncc1)c1ccc(OCCO)cc1)c1cc(C(=O)OC)ccc1OC)C(C)C` end up with in this test?
no (0)

What classification did `CC(C)(C)OC(=O)CC[C@]1(C(=O)O)N=C(c2ccc(OCCCO)cc2)O[C@H]1c1ccccc1` end up with in this test?
no (0)

What classification did `Cc1ccc(S[C@]2(C(=O)O)CC(=O)N(Cc3ccccc3Cl)[C@@H]2c2ccc(CO)cc2)cc1` end up with in this test?
no (0)

What classification did C[C@@H](OCc1ccccc1)C1NC(=O)[C@@]23C(=O)N[C@@H](Cc4ccccc4)C2[C@H](C)[C@@]2(C)O[C@H]2C3/C=C/C/C=C\CNC(=O)CNC1=O (some centres undefined) end up with in this test?
no (0)

What classification did `COC(=O)[C@@]1(Cc2ccc(OC)cc2)[C@H]2c3cc(C(=O)N(C)C)n(Cc4ccccc4)c3C[C@H]2CN1C(=O)c1ccccc1` end up with in this test?
no (0)

What classification did `C=C(CCCC)C(=O)CC[C@@H](OC(=O)c1ccccc1-c1ccccc1C(=O)O)c1cccc(OCCO)c1` end up with in this test?
yes (1)

What classification did `O=C1c2ccccc2[C@](Cc2ccccc2I)(C(=O)NCCN2CCOCC2)[C@H](c2ccc(CO)cc2)N1Cc1ccccc1` end up with in this test?
no (0)

What classification did `COC(=O)[C@H](Cc1ccccc1)N1CC(/C=C/C2CC2)=C[C@@H]1[C@@H](O)Cc1ccccc1` end up with in this test?
no (0)

What classification did `COCCOC(=O)N1C(=O)[C@@]2(c3cc(C#Cc4ccc(OC)cc4)ccc31)[C@H](C(=O)NC[C@H](O)c1ccccc1)[C@H]1C(=O)O[C@H](c3ccccc3)[C@H](c3ccccc3)N1[C@@H]2c1ccc(O)cc1` end up with in this test?
no (0)

====

The following molecules are shown together with reported composite z-score values.
molecular target: Dihydroorotate dehydrogenase (quinone), mitochondrial (Plasmodium falciparum (isolate 3D7)) (UniProt Q08210); test: PfDHODH enzyme inhibitors, primary screen, biochemical, C-terminal His tag, absorbance 600 nm (AID 1175); conditions: DCIP absorbance 600 nm, higher = more signal, called active from +8 up or from −8 down;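 note: recombinant parasite enzyme with a five histidine tag at its C terminus; test concentration not given here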
Sequence (Q08210 whole entry, looked up): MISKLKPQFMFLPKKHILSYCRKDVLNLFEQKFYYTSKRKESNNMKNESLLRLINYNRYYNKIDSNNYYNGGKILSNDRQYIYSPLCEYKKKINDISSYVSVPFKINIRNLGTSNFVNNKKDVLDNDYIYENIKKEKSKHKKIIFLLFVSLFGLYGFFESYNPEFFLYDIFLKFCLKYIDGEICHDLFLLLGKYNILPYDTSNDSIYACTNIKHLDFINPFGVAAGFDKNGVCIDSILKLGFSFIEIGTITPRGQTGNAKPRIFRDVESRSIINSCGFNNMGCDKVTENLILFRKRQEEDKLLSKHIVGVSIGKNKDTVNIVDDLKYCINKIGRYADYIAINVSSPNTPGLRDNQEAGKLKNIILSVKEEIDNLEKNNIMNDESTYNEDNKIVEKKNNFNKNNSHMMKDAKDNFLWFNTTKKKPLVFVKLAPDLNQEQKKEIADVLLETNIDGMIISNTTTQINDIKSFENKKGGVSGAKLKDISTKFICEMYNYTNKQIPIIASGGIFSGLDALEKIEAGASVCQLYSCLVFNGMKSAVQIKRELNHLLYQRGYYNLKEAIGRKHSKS
Activity calls are given as the source filed them.

// worked examples, composite z-score included
// query composite z-score value for entry `COC(=O)c1c(CC[C@@H](CO)NC(=O)N[C@H](Cn2cc(-c3ccccc3C)nn2)C(C)C)oc(C(C)=O)c1C(=O)OC`
-3.09 (inactive)

// query composite z-score value for entry CC=CC(O)C1C=CC2C(=O)N(c3ccccc3)C(=O)C2N1Nc1ccccc1 (centres undefined)
-0.174 (inactive)

// query composite z-score value for entry `COC(=O)[C@@]1(Cc2ccccc2)[C@H]2c3cc(C(=O)N4CCCC4)n(Cc4ccsc4Br)c3C[C@H]2CN1C(=O)c1ccccc1`
-0.876 (inactive)

New cases:
// query composite z-score value for entry `C=CCNC(=O)[C@H]1[C@@H]2C(=O)O[C@@H](c3ccccc3)[C@@H](c3ccccc3)N2[C@@H](c2ccccc2OCCO)[C@]12C(=O)N(C(=O)OCCOC)c1ccc(C#CC3=CCCCC3)cc12`
1.09 (inactive)

// query composite z-score value for entry `CO[C@H]1O[C@H](CO)[C@@H](OC(=O)Nc2ccccc2-c2ccccc2)[C@H](OC(=O)Nc2ccc3c(c2)OCO3)[C@@H]1OC(=O)Nc1ccc2c(c1)OCO2`
-0.289 (inactive)

// query composite z-score value for entry `O=C1O[C@@H](c2ccccc2)[C@@H](c2ccccc2)N2[C@@H](c3ccccc3OCCO)[C@]3(C(=O)Nc4ccc(C#CCCO)cc43)[C@@H](C(=O)N3CCN(c4ncccn4)CC3)[C@H]12`
0.286 (inactive)

// query composite z-score value for entry `Cc1ccc(F)cc1S(=O)(=O)N[C@@H]1CCN(Cc2ccc(OC(C)C)cc2)C1`
-0.0588 (inactive)

// query composite z-score value for entry `C=CCOC(=O)[C@H]1[C@@H]2C(=O)O[C@@H](c3ccccc3)[C@@H](c3ccccc3)N2[C@@H](c2ccc(OCCOC(=O)[C@H]3C[C@H]4C(=O)N[C@@H](CCCC[N+](C)(C)C)C(=O)N4[C@H]3c3cccc(OCCO)c3)cc2)[C@]12C(=O)Nc1ccc(I)cc12`
-2.44 (inactive)

// query composite z-score value for entry `COC(=O)[C@@]1(Cc2ccccc2)[C@H]2c3cc(C(=O)N4CCCC4)n(C[C@H](O)CO)c3C[C@H]2CN1C(=O)c1ccccc1`
0.355 (inactive)

// query composite z-score value for entry `CCOC(=O)C[C@H]1[C@H](OC(=O)c2ccc(-c3ccccc3)cc2)[C@@H](NC(=O)C2CCCCC2)c2cc(OCCCO)ccc2N1C(=O)c1ccccc1`
0.141 (inactive)

// query composite z-score value for entry `Cc1ccc(S[C@]2(C(=O)NC3CC3)CC(=O)N(Cc3ccccc3Cl)[C@@H]2c2ccc(CO)cc2I)cc1`
-2.13 (inactive)

// query composite z-score value for entry `COC(=O)[C@@]1(Cc2ccccc2)[C@H]2c3cc(C(=O)N4CCCC4)n(Cc4cc(F)cc5c4OCOC5)c3C[C@H]2CN1C(=O)c1ccccc1`
-0.354 (inactive)

// query composite z-score value for entry `C=C(C(=O)CC[C@H](OC(=O)c1cccnc1)c1cccc(OCCO)c1)C(C)C`
0.612 (inactive)

// query composite z-score value for entry `CC(C)(C)OC(=O)CC[C@]1(C(=O)N2CCOCC2)N=C(c2ccc(OCCCO)cc2)O[C@H]1c1ccccc1`
-0.127 (inactive)

====

test: fission yeast growth modulation, primary screen, strain 972, OD600, 24 h, no modulator (AID 1090);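 note: basal condition with compound alone and no growth modifier present; test concentration not given here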; conditions: S. pombe 972 growth, called active from +8 up or from −8 down
Calls of active or inactive are those of the source.
Your response should consist of one outcome taken from active, inactive

Completed entries (count: 3):
What classification did `CCCNC(=O)[C@@]1(c2ccc([N+](=O)[O-])cc2)CC(=O)N(C2CCCCC2)[C@@H]1c1ccc(CO)cc1I` end up with in this test?
inactive

What classification did `O=C(O)[C@H](Cc1ccccc1)n1cc(-c2ccccn2)nn1` end up with in this test?
inactive

What classification did `COc1ccccc1CN1C(=O)c2ccccc2[C@](Cc2ccccc2I)(C(=O)NC(C)C)[C@@H]1c1ccc(CO)cc1` end up with in this test?
inactive

New cases:
What classification did `Cc1ccc(S[C@]2(C(=O)NCCN3CCOCC3)CC(=O)N(Cc3ccccc3C(F)(F)F)[C@@H]2c2ccc(CO)cc2I)cc1` end up with in this test?
inactive

What classification did `COc1ccc([Si](C)(C)[C@H]2[C@H](CC(=O)N3Cc4ccccc4C[C@H]3CO)O[C@@]3(C(=O)N(Cc4cccc(N5CCCCC5=O)c4)c4ccccc43)[C@@H]2C)cc1` end up with in this test?
inactive

What classification did `CCOC(=O)C1=CC[C@@H](c2ccc([N+](=O)[O-])cc2)N(S(=O)(=O)c2ccc(C)cc2)[C@H]1c1ccccc1` end up with in this test?
inactive

What classification did `CN(C)CCCNC(=O)[C@@H]1c2ccccc2C(=O)N(Cc2ccc(OC(F)(F)F)cc2)[C@H]1c1ccc(CO)cc1` end up with in this test?
inactive
